Biological target: T1, CD27 expressed on the cell surface (HT1080_CD27 cells) (human, UniProt P26842 20-260); note: test concentration or dose not given here
T1 sequence (looked up): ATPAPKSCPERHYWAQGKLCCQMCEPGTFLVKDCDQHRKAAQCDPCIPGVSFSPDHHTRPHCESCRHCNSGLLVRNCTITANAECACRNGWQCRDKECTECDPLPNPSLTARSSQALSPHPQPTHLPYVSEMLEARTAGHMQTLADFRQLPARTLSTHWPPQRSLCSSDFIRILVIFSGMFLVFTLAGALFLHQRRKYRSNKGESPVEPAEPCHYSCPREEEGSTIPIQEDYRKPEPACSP
Test: cell-based or functional assay
recorded-endpoint: IL-8, cross-linked by F(ab')2 fragment [abs. corr.] (abs. corr.)
Numeric only. Scale: abs. corr.

Consider the worked cases shown below.
P018.S.01.A.C06 (antibody, V domains shown, V regions on human Ig constant parts; also called AB27_10) VH: QSVEESGGRLVTPGTPLTLTCTVSGIDLNNYVMGWVRQAPGKGLEWIGIINTAGSTYYANWAKGRFTISKTSTTVDLKITSPTTEDTATYFCARDSSYYIGYYFNLWGPGTLVTVSS VL: QIVMTQTPASVEVAVGGTVTIKCQASQSIGSNLAWYQQKPGQPPKLLIYDASDLESGVPSRFKGSGSGAQFTLTISDLESADAATYYCQQGYSATTNVDNAFGGGTEVVVK :: 1.79
P018.S.06.A.C02 (antibody, V domains shown, V regions on human Ig constant parts; also called AB27_100) VH: QSVEESGGRLVTPGTPLTLTCIVSGIDLSSNAMSWVRQAPGKGLEWIGIIGFAGITYYANWAKGRFTISKTSTTVDLKITSPTTEDTATYFCARAYGDSDGLYNLWGQGTLVTVSS VL: AQVLTQTASSVSAAVGGTVTISCQSSESVYNNNWLGWFQQKPGQPPKLLIYLASTLASGVPSRFKGSGSGTQFTLTISDLESDDAATYYCQGGYSGNIFAFGGGTEVVVN :: 1.61
P018.S.08.A.E02 (antibody, V domains shown, V regions on human Ig constant parts; also called AB27_139) VH: QSLEESGGRLVTPGGSLTLTCTVSGIDLSSYDMNWVRQAPGEGLEWIGAISTGGDTHYTNWAKGRFTISKTSTTVDLKMTSLTAADTATYFCARGYYTLALWGQGTLVTVSS VL: DPVLTQTPASVEAAVGGTVTIKCQASQSINSWLSWYQQKPGQPPKRLIYDTSTLESGVPSRFSGGESGTEFTLTISDLESDDAATYYCQSYYYITSSYAITFGGGTEVVVK :: 1.55
P018.S.06.A.D04 (antibody, V domains shown, V regions on human Ig constant parts; also called AB27_103) VH: QSLEESGGRLVKPDETLTLTCTVSGFDLSSYAVVWVRQAPGKGLEWIGYIYGGSGSTWYASWAKGRFTISKTSSTTVDLKMTSLTTEDTATYFCARAYDSGYIGNSFYAFDPWGPGTLVTVSS VL: DIVMTQTPASVSAAVGGTVTIKCQASQTISSTLAWYQQKPGQPPKLLIYSASTLASGVSSRFKGSGSGPEFTLTISDLESADGGTYTCAGYGTVGVTAFGGGTEVVVR :: 1.06

Then this binder:
Asked: Requested field: IL-8, cross-linked by F(ab')2 fragment [abs. corr.]. Item: P018.S.07.A.G02 (antibody, V domains shown, V regions on human Ig constant parts; also called AB27_129) VH: QSVEESGGRLVTPGTPLTLTCTVSGFSLSSYDMSWVRQAPGKGLEWIGWITTDGGTDYASWAKGRFTVSKASTTVDLKITSPTTEDTATYFCARGYASFNLWGQGTLVTVSS VL: AQVLTQTPSSVSAAVGGTVTINCQSSQSVLSNSYLAWYQQKPGQPPKLLIYAASSLASGVPSRFKGSGSGTQFTLTISDLESDDAATYYCQGTDYSGGWYVAFGGGTEVVVK
Given back: 2.41

Values from patent US20210253725A1
